experimentalProtocol: NCI Yeast Anticancer Drug Screen. Data for the bub3 strain (AID 167)
testContext: S. cerevisiae bub3 mutant strain, at 50.0 µM, hits give high values
This is part of a sample that, as a whole, favours compounds with a hit. Of some 79,000 tested, about 15% had one in any assay.
valueKind: growth inhibition (%)
Give bare numbers, in %.

Cc1cc2c(cc1C)C(=O)OC2=O	83.5
CC(=O)OCC1OC(n2cnc3c(Cl)nc(Cl)nc32)C(OC(C)=O)C1OC(C)=O (stereo unspecified)	70
O=c1c(O)cc2c(O)oc3c(=O)c(O)c(O)c4c(O)oc1c2c43	85
[CH3][Sn]1([CH3])[O]C(=O)CCN=Cc2c(ccc3ccccc23)[O][Sn]([CH3])([CH3])[O]C(=O)CCN=Cc2c(ccc3ccccc23)[O]1	92.3

Please give growth inhibition for each item listed below.
1. C/C=C/C/C=C/CCC(=O)C1OC1C(N)=O (stereo unspecified)
2. COC(=O)NNc1c([N+](=O)[O-])cnn(-c2ccccc2)c1=O
3. CCOC(=O)C(C)(C)C
4. COC(=O)CC1c2cc(OC)c3cccc(OC)c3c2CCC1(C)C(=O)OC (stereo unspecified)
5. O=C(Nc1ccc(Cl)cc1)OCCOCCOC(=O)Nc1ccc(Cl)cc1
6. COC(=O)/C(=N\NC(=O)c1ccccc1O)C(C#N)c1ccc(Cl)cc1 (stereo unspecified)

Output:
1: 91.8; 2: 0.9; 3: 73; 4: 77.2; 5: 98.7; 6: 71.8

For every listed record, write down its growth inhibition.
1. CCCCCCCCCCCCCCCC1C(N)C(=O)N(C)N1C (stereo unspecified)
2. Cc1ccc2c(c1)NC(=O)C(N=[N+]=[N-])(c1ccccc1)C2=O (stereo unspecified)
3. CCOC(=O)Sc1nc2ccccc2[nH]1
4. COC1OC(CO)C(O)C(OC(=O)c2ccc([N+](=O)[O-])cc2)C1OS(=O)(=O)c1ccc(C)cc1 (stereo unspecified)
5. COC(=O)/N=C/CCC(O)NC(=O)OC (stereo unspecified)
6. CC(=O)NS(=O)(=O)c1ccc(N=Cc2cc(Cl)cc(Cl)c2O)cc1
7. CCCC/C=C(/CCCNCCCC)[Si](C)(C)C
8. CC12OC(=O)C(C(N)=O)=C1C=C(c1ccccc1)CC2c1ccccc1 (stereo unspecified)

Output:
[89.5, 92.3, 7.45, -0.2, -18.8, 90.7, 92.7, 87.5]

Hey, quick one: what's growth inhibition for each of these?
1. c1c2c(cc(-n3nnc4c3CCCCCC4)c1-n1nnc3c1CCCCCC3)CCCCCC2
2. Cc1cc(Cl)c(O)c(-c2cc(-c3ccccc3O)c(C#N)c(N)n2)c1
3. CC(CCC(=O)O)[C@H]1CCC2[C@H]3C(CC[C@@]21C)[C@@]1(C)CCC(O)C[C@H]1C[C@@H]3O (stereo partly specified)
4. Clc1cc2c(c3ncccc13)OCN(CCc1ccccc1)C2
5. CC/C(=C(\CC)c1ccc(O)c(CN(CC)CC)c1)c1ccc(OC)cc1
6. CCCCCCCCCCN(CCCCCCCCCC)CC(O)c1cc(-c2ccccc2)nc2ccccc12 (stereo unspecified)
7. O=C(NC(=Nc1ccccc1)SCCSC(=Nc1ccccc1)NC(=O)c1ccccc1)c1ccccc1

Output:
[90.4, 62.4, 56.1, 69.6, 99.4, 26.9, 88]

// for each compound below, give its growth inhibition
1. N#CC1(C#N)C(C#N)(C#N)C12CCCC2
2. O=c1onc(-c2ccc(Cl)cc2)c2ccccc12
3. CC(NC(=O)OC(C)(C)C)C(=O)NC(Cc1ccccc1)C(=O)NCC(=O)Oc1c(Cl)c(Cl)c(Cl)c(Cl)c1Cl (stereo unspecified)
4. Nc1ncnc2c1ncn2C1OCC(O)C1O (stereo unspecified)
5. O=[N+]([O-])c1cccc2nc3ccccc3c(NCCNCCO)c12
6. O=[N+]([O-])/C(C(Cl)=C(Cl)Cl)=C(/Cl)SCc1ccccc1

Output:
1: 12.4; 2: 14.4; 3: 56.5; 4: 82.7; 5: 10.6; 6: 91.5

* * *

Provide the reported growth inhibition of each item.
experimentalProtocol: NCI Yeast Anticancer Drug Screen. Data for the cln2 rad14 strain (AID 165);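 further: 0% = growth equal to vehicle treated cultures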
testContext: S. cerevisiae cln2 rad14 strain, at 5.0 µM (retest, dose inferred, filed as 0.5), hits give high values
Procedure: Growth inhibition of yeast strains with defined genetic alterations is measured as a screen for potential anti-cancer activity. Selected strains with alterations in DNA damage repair or cell cycle control were exposed to compounds and growth inhibition was measured relative to vehicle treated controls. The strain used in this assay is cln2 rad14
The panel holds about 79,000 compounds, 15% with a hit somewhere; the sample as a whole holds those more often.
One number for each entry, in %.

Reference set (4 entries):
O=C(NCCCNCCCCNCCCNC(=O)c1cc(-c2ccccc2)nc2ccccc12)c1cc(-c2ccccc2)nc2ccccc12	30
CC(C)c1ccc2c(c1)CCC1C(C)(CN)CCCC21C (centres undefined)	-6
O=C(N/C(=C\c1nc2ccccc2s1)c1ccccc1O)c1ccccc1	2
CCOC(=O)Nc1c(F)cc(F)cc1F	-2

Below are 5 molecules. Give each one its growth inhibition.
1. CN1CCN(CCCCN2c3ccccc3Sc3ccc(C(=O)c4ccccc4)cc32)CC1
2. CCCCCCCCCCCC(C)N (centres undefined)
3. CCOc1ccc(C=Nc2ccc(/C=C(\C)C(=O)OCCC(C)C)cc2)cc1
4. Oc1c(Cl)cc(C(c2cc(Cl)c(O)c(Cl)c2)C(c2cc(Cl)c(O)c(Cl)c2)c2cc(Cl)c(O)c(Cl)c2)cc1Cl
5. CCCCP(CCCC)(CCCC)=C(C(=O)OC)C(C(=O)OC)=C1SC(C(=O)OC)=C(C(=O)OC)S1

Output:
30
12
94
98
47

* * *

experimentalProtocol: NCI Yeast Anticancer Drug Screen. Data for the cln2 rad14 strain (AID 165);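 further: 0% = growth equal to vehicle treated cultures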
testContext: S. cerevisiae cln2 rad14 strain, at 50.0 µM, hits give high values
About 79,000 compounds went through this panel and 15% of them were active in at least one assay; those are over-represented in the sample as a whole. Active and inactive are the calls of the source. Rule as the data show it: active = growth inhibition above about 70%; inactive = the rest.
Assignment: determine reported growth inhibition for the given compounds.

Consider the following illustrative entries.
N#Cc1c(Cl)cc(Cl)n2c1nc1ccccc12	91.7% (active)
CCOc1c(N=Nc2ccc(Cl)cc2)c(-c2ccccc2)nn1C(=S)S	91.5% (active)
N#CC(=C1C=CC(=NOC(=O)Nc2ccccc2)C=C1)c1ccccc1	88.3% (active)

For each of the compounds below, note its growth inhibition.
1. C(=N\NC1=NCCN1)/c1cccc2cc3ccncc3nc12
2. C=CC[C@]1(C(C)Cc2ccc(OC)c(OC)c2)C[C@@H](OC)C=CC1=O (stereo not given in full)

Output:
1. 88% (active)
2. 88.5% (active)

* * *

experimentalProtocol: NCI Yeast Anticancer Drug Screen. Data for the rad50 strain (AID 155);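 further: 0% = growth of vehicle-only cultures of the same strain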
testContext: S. cerevisiae rad50 strain growth inhibition; at 5.0 µM (retest, dose inferred, filed as 0.5)
This is part of a sample that, as a whole, favours compounds with a hit. Of some 79,000 tested, about 15% had one in any assay. Active and inactive are the calls of the source. No stated cut-off is given here; in the data, active means growth inhibition above about 70%; inactive means the rest.
Pick one: true (1) = active, false (0) = inactive

O=C1C(Cl)=C(NCCC2CCCN3CCCCC23)C(=O)c2ccccc21 (stereo not given)	false (0)
CC(=O)Nc1ccc2c(c1)C(=Nc1ccc(F)cc1)c1ccccc1-2	false (0)
CC(=O)Nc1ccc2c(ccc3cccc[n+]32)c1	false (0)
Cc1cccc(/C=N/Nc2ccccn2)n1	false (0)
O=C(c1ccccc1)c1[nH]c2ccccc2c(=O)c1-c1ccc([N+](=O)[O-])cc1	false (0)
O=C1CCCCO1	false (0)
Nc1ccc2c(c1)Cc1c(Cl)cccc1-2	false (0)
CN1C(Cl)=NS(=O)(=O)c2ccccc21	false (0)

Task: Kindly provide the recorded test outcome for the following molecule: O=S1(=O)C(C(O)(c2ccccc2)c2ccccc2)CCCN1c1ccccc1 (stereo not given)
Output: false (0)

Task: Assay outcome for N#CC(C(=O)C(N)=O)c1ccc(Cl)cc1Cl (stereo not given) : what was it?
Output: false (0)

Task: Answer briefly: the call reported for Cn1c(=S)c2[nH]c(SCc3ccncc3)nc2n(C)c1=O in this assay.
Output: false (0)

Task: What classification did O=C1OC(c2ccccc2)(c2ccccc2)Cc2ccccc21 end up with in this test?
Output: false (0)

Task: Tell me the assay call for N#Cc1sc2c(c1OC(=O)c1ccc(Cl)cc1)c(=O)n(-c1ccccc1)c(=S)n2-c1ccccc1 please.
Output: false (0)

Task: Hi team, can someone confirm the assay call for COc1ccccc1C(=O)Nc1ccc(Cl)c(C(=O)OC(C)C)c1 ?
Output: false (0)

Task: Just curious, what result did COc1ccc(C2C3C(=O)OCCOC(=O)C3C2c2ccc(OC)c(OC)c2)cc1OC (stereo not given) get here?
Output: false (0)

Task: Any idea what this test logged for Nc1ccc2oc(=O)c3ccccc3c2c1 ?
Output: false (0)

Task: Hi, do you know how O=P(O)(CN1CCN(CP(=O)(O)c2ccccc2)CCN(CP(=O)(O)c2ccccc2)CC1)c1ccccc1 came out in this test?
Output: false (0)

Task: What call does the record list for Clc1cc[c]([Sn]([Cl])([O][Sn]([Cl])([c]2ccc(Cl)cc2)[c]2ccc(Cl)cc2)[c]2ccc(Cl)cc2)cc1 ?
Output: true (1)

Task: Kindly provide the recorded test outcome for the following molecule: CC(=O)NS(=O)(=O)c1ccc(N=Cc2cc(Cl)cc(Cl)c2O)cc1
Output: false (0)

Task: Recorded call for O=c1[nH]c2c([N+](=O)[O-])cc(Cl)cc2nc1/C=C(\O)c1ccc(Cl)cc1 ?
Output: false (0)
